Reference source for all entries: patent US20230119479A1

Reported pIC50 is given for each of the following compounds.
# Subject of test: HDAC2 Human recombinant C-terminal FLAG-tag (Homo sapiens, UniProt Q92769)
# Construct: FLAG (C); purchased BPS Bioscience 50052
# Sequence (Q92769 whole entry): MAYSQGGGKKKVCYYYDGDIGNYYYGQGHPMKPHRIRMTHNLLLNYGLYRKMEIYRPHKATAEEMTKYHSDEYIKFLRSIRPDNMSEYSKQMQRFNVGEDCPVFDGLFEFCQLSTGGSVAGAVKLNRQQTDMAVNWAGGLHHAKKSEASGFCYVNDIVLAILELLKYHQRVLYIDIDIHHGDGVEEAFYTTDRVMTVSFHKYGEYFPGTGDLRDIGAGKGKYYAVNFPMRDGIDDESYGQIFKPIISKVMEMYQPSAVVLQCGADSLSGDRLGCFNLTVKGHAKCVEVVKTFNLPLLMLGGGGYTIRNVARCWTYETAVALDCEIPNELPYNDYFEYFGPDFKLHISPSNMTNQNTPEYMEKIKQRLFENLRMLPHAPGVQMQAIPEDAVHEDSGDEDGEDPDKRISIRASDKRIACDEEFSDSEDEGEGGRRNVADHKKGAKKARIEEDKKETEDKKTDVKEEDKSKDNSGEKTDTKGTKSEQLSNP
# Protocol details: Measurement of HDAC2 enzyme inhibitory activity (HTRF)
# Type: biochemical
# Condition details: recombinant HDAC2, H3K9ac peptide, 3 hours room temperature; read-out: HDAC2 IC50
// pIC50: -log10(molar conc.)

QUERY: Hello, please tell me recorded pIC50 for this one: Nc1ccc(-c2cncs2)cc1NC(=O)c1cc2c(cn1)OCCC2 [Compound I-067]
RESULT: 6.92

QUERY: Hello, please tell me recorded pIC50 for this one: Nc1ccc(-c2ccc(F)nc2)cc1NC(=O)c1ccc(C2COC2)cn1 [Compound I-246]
RESULT: 6.96

QUERY: Hello, please tell me recorded pIC50 for this one: Nc1ccc(-c2ccc(F)nc2)cc1NC(=O)c1cnc(N2CCOCC2)cn1 [Compound I-303]
RESULT: 7.15

QUERY: Hello, please tell me recorded pIC50 for this one: Cn1cc(-c2cnc(C(=O)Nc3cc(-c4cccs4)ccc3N)c(F)c2)cn1 [Compound I-016]
RESULT: 6.80

QUERY: Hello, please tell me recorded pIC50 for this one: Nc1ccc(-c2ccc(F)nc2)cc1NC(=O)c1ccc2ocnc2n1 [Compound I-148]
RESULT: 6.82

Next:
QUERY: Hello, please tell me recorded pIC50 for this one: Cn1cc(-c2ccc(N)c(NC(=O)c3cnc(N4CCCC4)cn3)c2)cn1 [Compound I-241]
RESULT: 6.85
